Hey, just so you know, these numbers are from patent US10670605B2.

Biological target: GSTP1 C48 (P09211) (Homo sapiens)
Sequence (P09211 whole entry, the tested form may be a part): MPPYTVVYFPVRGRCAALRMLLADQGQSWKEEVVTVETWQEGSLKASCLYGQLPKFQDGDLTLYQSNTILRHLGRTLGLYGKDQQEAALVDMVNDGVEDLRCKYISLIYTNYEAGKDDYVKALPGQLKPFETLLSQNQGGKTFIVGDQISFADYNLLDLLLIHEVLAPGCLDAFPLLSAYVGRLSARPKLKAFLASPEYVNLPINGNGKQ
Test: Competitive isoTOP-ABPP, cell lysates;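 also: Heavy/light ratio DMSO over fragment-treated so higher means more cysteine engagement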
Format: binding
Conditions: 500 μm, in-vitro_ramos_231
Endpoint name: isoTOP-ABPP reactivity profile ratio, P09211_C48
Enter the number alone.

The cases that follow already have their isoTOP-ABPP reactivity profile ratio, P09211_C48 on record.
O=C(CCl)N1CCc2cc(Br)ccc21 = 2.3
COc1cc(NC(=O)CCl)cc(OC)c1 = 4.1
O=C(CCl)Nc1cccc2ncccc12 = 1.1

Entry Cc1ncc(CO)c(CNC(=O)CCl)c1O , isoTOP-ABPP reactivity profile ratio, P09211_C48 reported as 1.3

Entry CC1CCc2ccccc2N1C(=O)CCl (centres unmarked) , isoTOP-ABPP reactivity profile ratio, P09211_C48 reported as 19.7
